- target-of-assay: CdnP (Rv2837c) (Mycobacterium tuberculosis, UniProt P71615)
- Construct: pET32a vector-encoded fusion (Trx / His6 / S-tag; composition from own knowledge of the vector, His tag consistent with Ni-NTA purification) (N); made in house; host or cells: Escherichia coli BL21(DE3)
- assay-details: High-throughput enzymatic activity assay (coralyne/c-di-AMP fluorescence)
- Format: biochemical
- test-conditions: 100 nM CdnP, 15 µM c-di-AMP, 37°C; read-out: IC50 (half maximal inhibitory concentration)
IC50 listing for selected molecules.

Here's what some known entries look like.
{"molecule": "COc1ccc([C@]2(C#N)CC[C@@H](C(=O)O)CC2)cc1OC1CCCC1 [Cilomilast, reference compound]", "result": "> 1000 µM"}
{"molecule": "Cc1cc(O)c2c3c1C(=O)C1c4c(c(O)cc5cc(O)cc(C)c45)[C@@]3(COC2=O)[C@H]1O [Macrosporusone A]", "result": "16.8 µM"}
{"molecule": "C[C@@H]1O[C@@H](OC[C@H]2O[C@@H](Oc3cc(O)c4c(=O)cc(-c5ccc(O)cc5)oc4c3)[C@H](O[C@@H]3O[C@@H](C)[C@H](O)[C@@H](O)[C@H]3O)[C@@H](O)[C@@H]2O)[C@H](O)[C@H](O)[C@H]1O [Ligustroflavone]", "result": "39.5 µM"}
{"molecule": "COc1ccc(-c2cc(=O)c3c(O)cc(O[C@@H]4O[C@H](CO)[C@@H](O)[C@H](O)[C@H]4O[C@@H]4O[C@@H](C)[C@H](O)[C@@H](O)[C@H]4O)cc3o2)cc1O [Neodiosmin]", "result": "5.5 µM"}

Asked: Report IC50 for O=C1CCc2cc(OCCCCc3nnnn3C3CCCCC3)ccc2N1 [Cilostazol, reference compound]
Given back: > 1000 µM

Asked: Report IC50 for C[C@@H]1O[C@@H](O[C@H]2[C@H](Oc3cc(O)c4c(=O)cc(-c5ccc(O)cc5)oc4c3)O[C@H](CO)[C@@H](O)[C@@H]2O)[C@H](O)[C@H](O)[C@H]1O [Rhoifolin]
Given back: 20.3 µM

---

- target-of-assay: CdnP (Mycobacterium tuberculosis)
- assay-details: Surface plasmon resonance (SPR) binding assay
kd listing for selected molecules.
Provide the reading as a plain figure in s⁻¹.

Here's what some known entries look like.
{"molecule": "O=C1CCc2cc(OCCCCc3nnnn3C3CCCCC3)ccc2N1 [Cilostazol, reference compound]", "kd, s⁻¹": 0.321}
{"molecule": "C[C@@H]1O[C@@H](O[C@H]2[C@H](Oc3cc(O)c4c(=O)cc(-c5ccc(O)cc5)oc4c3)O[C@H](CO)[C@@H](O)[C@@H]2O)[C@H](O)[C@H](O)[C@H]1O", "kd, s⁻¹": 0.209}
{"molecule": "COc1ccc(-c2cc(=O)c3c(O)cc(O[C@@H]4O[C@H](CO)[C@@H](O)[C@H](O)[C@H]4O[C@@H]4O[C@@H](C)[C@H](O)[C@@H](O)[C@H]4O)cc3o2)cc1O", "kd, s⁻¹": 0.00229}
{"molecule": "Cc1cc(O)c2c3c1C(=O)C1c4c(c(O)cc5cc(O)cc(C)c45)[C@@]3(COC2=O)[C@H]1O", "kd, s⁻¹": "1.62e-07"}
{"molecule": "COc1ccc([C@]2(C#N)CC[C@@H](C(=O)O)CC2)cc1OC1CCCC1 [Cilomilast, reference compound]", "kd, s⁻¹": 0.465}

Now look at this one.
Asked: Report kd for C[C@@H]1O[C@@H](OC[C@H]2O[C@@H](Oc3cc(O)c4c(=O)cc(-c5ccc(O)cc5)oc4c3)[C@H](O[C@@H]3O[C@@H](C)[C@H](O)[C@@H](O)[C@H]3O)[C@@H](O)[C@@H]2O)[C@H](O)[C@H](O)[C@H]1O
Given back: 6.42e-06

---

Quality kinetics Chi^2 listing for selected molecules.
- target-of-assay: CdnP (Mycobacterium tuberculosis, UniProt P71615)
- Sequence (P71615 whole entry, looked up): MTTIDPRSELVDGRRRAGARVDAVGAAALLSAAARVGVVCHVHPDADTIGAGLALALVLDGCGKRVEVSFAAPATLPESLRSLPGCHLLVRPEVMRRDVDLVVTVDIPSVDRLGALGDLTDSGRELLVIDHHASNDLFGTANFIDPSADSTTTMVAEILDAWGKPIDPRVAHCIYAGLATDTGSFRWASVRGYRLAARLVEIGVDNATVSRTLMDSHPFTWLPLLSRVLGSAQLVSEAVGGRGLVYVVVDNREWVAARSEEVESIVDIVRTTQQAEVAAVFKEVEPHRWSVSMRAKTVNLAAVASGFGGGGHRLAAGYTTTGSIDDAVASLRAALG
- assay-details: Surface plasmon resonance (SPR) binding assay
Provide the reading as a plain figure in RU^2.

{"molecule": "COc1ccc(-c2cc(=O)c3c(O)cc(O[C@@H]4O[C@H](CO)[C@@H](O)[C@H](O)[C@H]4O[C@@H]4O[C@@H](C)[C@H](O)[C@@H](O)[C@H]4O)cc3o2)cc1O [Neodiosmin]", "units-symbol": "RU^2", "measured-number": "8.92e-02"}
{"molecule": "O=C1CCc2cc(OCCCCc3nnnn3C3CCCCC3)ccc2N1 [Cilostazol, reference compound]", "units-symbol": "RU^2", "measured-number": "7.64e-02"}
{"molecule": "C[C@@H]1O[C@@H](O[C@H]2[C@H](Oc3cc(O)c4c(=O)cc(-c5ccc(O)cc5)oc4c3)O[C@H](CO)[C@@H](O)[C@@H]2O)[C@H](O)[C@H](O)[C@H]1O [Rhoifolin]", "units-symbol": "RU^2", "measured-number": "2.02e-01"}
{"molecule": "Cc1cc(O)c2c3c1C(=O)C1c4c(c(O)cc5cc(O)cc(C)c45)[C@@]3(COC2=O)[C@H]1O [Macrosporusone A]", "units-symbol": "RU^2", "measured-number": "2.46e+00"}
{"molecule": "COc1ccc([C@]2(C#N)CC[C@@H](C(=O)O)CC2)cc1OC1CCCC1 [Cilomilast, reference compound]", "units-symbol": "RU^2", "measured-number": "3.17e-01"}

Asked: Report Quality kinetics Chi^2 for C[C@@H]1O[C@@H](OC[C@H]2O[C@@H](Oc3cc(O)c4c(=O)cc(-c5ccc(O)cc5)oc4c3)[C@H](O[C@@H]3O[C@@H](C)[C@H](O)[C@@H](O)[C@H]3O)[C@@H](O)[C@@H]2O)[C@H](O)[C@H](O)[C@H]1O [Ligustroflavone]
Given back: 4.90e-02

---

- target-of-assay: CdnP (Mycobacterium tuberculosis, UniProt P71615)
- assay-details: Surface plasmon resonance (SPR) binding assay
readout-kind: tc
// return just the number, without any unit appended

Here's what some known entries look like.
{"compound": "C[C@@H]1O[C@@H](O[C@H]2[C@H](Oc3cc(O)c4c(=O)cc(-c5ccc(O)cc5)oc4c3)O[C@H](CO)[C@@H](O)[C@@H]2O)[C@H](O)[C@H](O)[C@H]1O [Rhoifolin]", "measured-number": "1.49e+08"}
{"compound": "COc1ccc(-c2cc(=O)c3c(O)cc(O[C@@H]4O[C@H](CO)[C@@H](O)[C@H](O)[C@H]4O[C@@H]4O[C@@H](C)[C@H](O)[C@@H](O)[C@H]4O)cc3o2)cc1O [Neodiosmin]", "measured-number": "1.17e+08"}

Asked: Report tc for Cc1cc(O)c2c3c1C(=O)C1c4c(c(O)cc5cc(O)cc(C)c45)[C@@]3(COC2=O)[C@H]1O [Macrosporusone A]
Given back: 1.02e+08

Asked: Report tc for C[C@@H]1O[C@@H](OC[C@H]2O[C@@H](Oc3cc(O)c4c(=O)cc(-c5ccc(O)cc5)oc4c3)[C@H](O[C@@H]3O[C@@H](C)[C@H](O)[C@@H](O)[C@H]3O)[C@@H](O)[C@@H]2O)[C@H](O)[C@H](O)[C@H]1O [Ligustroflavone]
Given back: 1.16e+08

Asked: Report tc for O=C1CCc2cc(OCCCCc3nnnn3C3CCCCC3)ccc2N1 [Cilostazol, reference compound]
Given back: 5.48e+09

Asked: Report tc for COc1ccc([C@]2(C#N)CC[C@@H](C(=O)O)CC2)cc1OC1CCCC1 [Cilomilast, reference compound]
Given back: 6.30e+06

---

- target-of-assay: CdnP (Mycobacterium tuberculosis)
- assay-details: Surface plasmon resonance (SPR) binding assay
- test-conditions: read-out: 1:1 binding ka
log10 of kon listing for selected compounds.
Friendly reminder: values = log10 of kon, unit M⁻¹ s⁻¹.

Here's what some known entries look like.
{"compound": "Cc1cc(O)c2c3c1C(=O)C1c4c(c(O)cc5cc(O)cc(C)c45)[C@@]3(COC2=O)[C@H]1O", "log10 of kon": 5.40}
{"compound": "C[C@@H]1O[C@@H](OC[C@H]2O[C@@H](Oc3cc(O)c4c(=O)cc(-c5ccc(O)cc5)oc4c3)[C@H](O[C@@H]3O[C@@H](C)[C@H](O)[C@@H](O)[C@H]3O)[C@@H](O)[C@@H]2O)[C@H](O)[C@H](O)[C@H]1O", "log10 of kon": 2.53}
{"compound": "COc1ccc(-c2cc(=O)c3c(O)cc(O[C@@H]4O[C@H](CO)[C@@H](O)[C@H](O)[C@H]4O[C@@H]4O[C@@H](C)[C@H](O)[C@@H](O)[C@H]4O)cc3o2)cc1O", "log10 of kon": 0.77}
{"compound": "C[C@@H]1O[C@@H](O[C@H]2[C@H](Oc3cc(O)c4c(=O)cc(-c5ccc(O)cc5)oc4c3)O[C@H](CO)[C@@H](O)[C@@H]2O)[C@H](O)[C@H](O)[C@H]1O", "log10 of kon": 5.33}

Asked: Provide measured log10 of kon on CdnP (Mycobacterium tuberculosis) for COc1ccc([C@]2(C#N)CC[C@@H](C(=O)O)CC2)cc1OC1CCCC1 [Cilomilast, reference compound] please.
Given back: 1.02

Asked: Provide measured log10 of kon on CdnP (Mycobacterium tuberculosis) for O=C1CCc2cc(OCCCCc3nnnn3C3CCCCC3)ccc2N1 [Cilostazol, reference compound] please.
Given back: 4.88
